assay: Inhibition of beta lactamase assessed as increase in time taken for iodine decolorization relative to control; parameters: concentration or dose not given beside the values; settings: concentration not given here
property_measured: inhibition (%)
Write the number in % without appending the unit.

Task: Give reported inhibition value for CCN(CC)CN1C(=O)/C(=N/NC(=S)Nc2ccc(Cl)cc2)c2cc(Cl)ccc21
Output: 44.2

Task: Give reported inhibition value for CCN(CC)CN1C(=O)/C(=N/NC(=S)Nc2ccc(C)cc2)c2cc(Cl)ccc21
Output: 34.1

Task: Give reported inhibition value for CCN(CC)CN1C(=O)/C(=N/NC(=S)Nc2ccc(OC)cc2)c2ccccc21
Output: 35.7

Task: Give reported inhibition value for CCN(CC)CN1C(=O)/C(=N/NC(=S)Nc2ccc(C)cc2)c2ccccc21
Output: 45.5

Task: Give reported inhibition value for CCN(CC)CN1C(=O)/C(=N/NC(=S)Nc2ccc(Cl)cc2)c2ccccc21
Output: 38.7

Task: Give reported inhibition value for CCN(CC)CN1C(=O)/C(=N/NC(=S)Nc2ccc(OC)cc2)c2cc(Cl)ccc21
Output: 52.6

Task: Give reported inhibition value for CCN(CC)CN1C(=O)/C(=N/NC(N)=S)c2ccccc21
Output: 38.2

Task: Give reported inhibition value for CCN(CC)CN1C(=O)/C(=N/NC(N)=S)c2cc(Cl)ccc21
Output: 34.6

Task: Give reported inhibition value for CCN(CC)CN1C(=O)/C(=N/NC(=S)Nc2ccccc2)c2ccccc21
Output: 50.2

Task: Give reported inhibition value for O=C(O)[C@H]1/C(=C/CO)O[C@@H]2CC(=O)N21
Output: 67

Task: Give reported inhibition value for CCN(CC)CN1C(=O)/C(=N/NC(=S)Nc2ccccc2)c2cc(Cl)ccc21
Output: 49.2
